meta.source: ChEMBL document CHEMBL4819147

- Method description: Octanol-water partition coefficient, logP of the compound
- Assay type: physicochemical
Experimental readout: logP
Reply with just the number.

# example entries with known answers
O=C(c1cc(Cc2n[nH]c(=O)c3ccccc23)ccc1F)N1CCn2c(nc3ccc(F)cc32)C1: 4.83
O=C(c1cc(Cc2n[nH]c(=O)c3ccccc23)ccc1F)N1CCN(c2nc3ccccc3[nH]2)CC1: 4.15

For this molecule ( O=C(c1cc(Cc2n[nH]c(=O)c3ccccc23)ccc1F)N1CCN(C(=O)C2CC2)CC1 ), measured logP is 2.79

---

Some compounds, each annotated with its measured inhibition.
- System tested: Poly [ADP-ribose] polymerase 1 (Homo sapiens)
- Sequence (P09874 whole entry): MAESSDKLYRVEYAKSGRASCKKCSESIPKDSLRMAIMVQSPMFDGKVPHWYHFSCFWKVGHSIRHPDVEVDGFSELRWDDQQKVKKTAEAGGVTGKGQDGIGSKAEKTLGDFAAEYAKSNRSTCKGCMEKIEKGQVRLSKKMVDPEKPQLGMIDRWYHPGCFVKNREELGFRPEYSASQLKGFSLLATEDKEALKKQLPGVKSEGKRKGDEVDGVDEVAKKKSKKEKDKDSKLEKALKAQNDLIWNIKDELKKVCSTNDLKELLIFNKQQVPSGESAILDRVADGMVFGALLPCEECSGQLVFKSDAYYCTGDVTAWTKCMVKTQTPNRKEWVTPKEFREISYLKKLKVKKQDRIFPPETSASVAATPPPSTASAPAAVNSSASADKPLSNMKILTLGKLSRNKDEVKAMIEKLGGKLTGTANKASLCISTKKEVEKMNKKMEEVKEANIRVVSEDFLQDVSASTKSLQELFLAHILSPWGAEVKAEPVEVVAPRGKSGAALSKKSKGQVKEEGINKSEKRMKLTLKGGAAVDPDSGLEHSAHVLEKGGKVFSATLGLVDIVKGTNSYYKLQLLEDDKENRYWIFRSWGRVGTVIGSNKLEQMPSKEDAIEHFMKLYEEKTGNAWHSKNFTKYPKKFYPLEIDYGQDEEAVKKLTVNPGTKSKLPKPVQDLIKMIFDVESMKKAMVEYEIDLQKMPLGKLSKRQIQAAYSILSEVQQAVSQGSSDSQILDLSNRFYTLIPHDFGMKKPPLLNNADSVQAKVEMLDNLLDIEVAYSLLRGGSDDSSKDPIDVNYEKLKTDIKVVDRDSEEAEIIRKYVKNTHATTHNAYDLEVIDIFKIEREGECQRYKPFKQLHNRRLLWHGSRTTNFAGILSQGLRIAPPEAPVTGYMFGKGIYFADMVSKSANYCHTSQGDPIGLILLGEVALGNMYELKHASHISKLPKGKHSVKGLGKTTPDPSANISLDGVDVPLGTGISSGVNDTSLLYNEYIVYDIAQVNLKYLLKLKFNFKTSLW
- Method description: Inhibition of PARP1 (unknown origin) at 10 nM relative to control
The reply should be a number in %, with the unit left off.

O=c1[nH]nc(Cc2ccc(F)c(CN3CCN(c4nc5ccccc5[nH]4)CC3)c2)c2ccccc12: 42
O=c1[nH]nc(Cc2ccc(F)c(CN3CCC(c4nc5ccccc5[nH]4)CC3)c2)c2ccccc12: 47
COc1nnc(Cc2ccc(F)c(C(=O)N3CCC(c4nc5c(C(N)=O)cncc5[nH]4)CC3)c2)c2ccccc12: 40
O=C(c1cc(Cc2n[nH]c(=O)c3ccccc23)ccc1F)N1CCC(c2nc3ccccc3[nH]2)CC1: 100
CCOc1ncc(C(N)=O)c2nc(C3CCN(C(=O)c4cc(Cc5n[nH]c(=O)c6ccccc56)ccc4F)CC3)[nH]c12: 100
O=C(c1cc(Cc2n[nH]c(=O)c3ccccc23)ccc1F)N1CCN(c2nc3ccccc3[nH]2)CC1: 100

Okay, now this compound:
For this compound ( COc1ncc(C(N)=O)c2nc(C3CCN(C(=O)c4cc(Cc5n[nH]c(=O)c6ccccc56)ccc4F)CC3)[nH]c12 ), measured inhibition is 98
